The binders listed here are annotated with their Kd.
Target: T1, human CD137-His6 (Sino Biological #10041-H08H) (human, UniProt Q07011 24-186)
T1 construct: Bought; also called human CD137 protein; not shown: His6 tag
Test: SPR Biacore, IgG
Output spec: scalar in nM, unitless text.

Some binders with recorded Kd:
AG10083 (antibody, human IgG4 S228P, kappa, V domains shown, also called IgG of Fab 5323) VH: EVQLVESGGGLVQPGGSLRLSCAASGFSLSTSGVGVGWIRQAPGKGLEWIGEIYHSGSTYYSPSLKSRVTISRDNSKNTLYLQLNSLKAEDTAVYYCAREGSDVVTGDWFAYWGQGTLVTVSS VL: DIQLTQSPSSLSASVGDRVTITCRASQGISSVLAWYQQKPGKAPKLLIYDASSLESGVPSRFSGSGSGTDFTLTISSLQPEDFATYYCQQGYSLWTFGQGTKVEIKR = 12
AG10061 (antibody, human IgG4 S228P, kappa, V domains shown) VH: EVQLVESGGGLVQPGGSLRLSCAASGFSLSTSGVAVAWIRQAPGKGLEWLALIDWDDDKRYSTSLKSRLTISRDNSKNTLYLQLNSLRAEDTAVYYCAREGSTTVVGDWFDYWGQGTLVTVSS VL: DIQLTQSPSSLSASVGDRVTITCRASQGIGTYLAWYQQKPGKAPKLLIYDASNRATGIPSRFSGSGSGTDFTLTISSLQPEDFATYYCQQGYSLWTFGQGTKVEIKR = 3.6

Now for the binder whose Kd we want.
Entry AG10079 (antibody, human IgG4 S228P, kappa, V domains shown, also called IgG of Fab 4074) VH: EVQLVESGGGLVQPGGSLRLSCAASGFSLSTGGVGVSWIRQAPGKGLEWVSSISGSGGTTYYADSVKGRFTISRDNSKNTLYLQLNSLRAEDTAVYYCARDDLYSWYFDVWGQGTLVTVSS VL: DIQLTQSPSSLSASVGDRVTITCRASQGIGSSLAWYQQKPGKAPKLLIYAASSLQSGVPSRFSGSGSGTDFTLTISSLQPEDFATYYCQQGYYTWTFGQGTKVEIKR ; Kd = 1.4
